- Test system: LXRa homodimer (NR concentration 270 nM)
- Method notes: PBM binding z-score (relative to random genomic background probes); higher = stronger binding; sequences stand for … in GC…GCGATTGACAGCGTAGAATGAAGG
Observation type: PBM binding z-score
Lab note: record the figure alone, no unit after it.

The recorded PBM binding z-score for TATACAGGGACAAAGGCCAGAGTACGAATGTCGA is 0.279

The recorded PBM binding z-score for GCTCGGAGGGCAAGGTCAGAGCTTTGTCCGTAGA is -0.485

The recorded PBM binding z-score for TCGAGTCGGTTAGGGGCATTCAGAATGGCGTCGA is -0.614

The recorded PBM binding z-score for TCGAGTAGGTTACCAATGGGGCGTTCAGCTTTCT is -0.684

The recorded PBM binding z-score for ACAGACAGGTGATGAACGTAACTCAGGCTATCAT is 0.0611

The recorded PBM binding z-score for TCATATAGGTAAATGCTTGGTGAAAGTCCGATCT is 0.23

Others:
The recorded PBM binding z-score for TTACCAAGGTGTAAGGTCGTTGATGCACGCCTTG is -0.156

The recorded PBM binding z-score for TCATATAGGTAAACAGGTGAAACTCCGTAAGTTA is 0.143

The recorded PBM binding z-score for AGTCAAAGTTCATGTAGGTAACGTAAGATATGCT is 4.83

The recorded PBM binding z-score for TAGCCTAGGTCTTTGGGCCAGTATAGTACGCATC is -0.792

The recorded PBM binding z-score for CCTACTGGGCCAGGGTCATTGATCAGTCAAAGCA is 0.0124

The recorded PBM binding z-score for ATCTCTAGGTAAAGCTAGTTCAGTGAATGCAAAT is -0.0105

The recorded PBM binding z-score for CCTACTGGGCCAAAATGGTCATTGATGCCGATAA is -0.317

The recorded PBM binding z-score for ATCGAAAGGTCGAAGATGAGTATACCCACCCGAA is 0.43

###

- Test system: RARg homodimer (NR concentration 270 nM)
- Method notes: PBM binding z-score (relative to random genomic background probes); higher = stronger binding; sequences stand for … in GC…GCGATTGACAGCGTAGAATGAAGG
In this section, each of the sequences is paired with its reported PBM binding z-score.
Lab note: record the figure alone, no unit after it.

Worked examples follow.
The recorded PBM binding z-score for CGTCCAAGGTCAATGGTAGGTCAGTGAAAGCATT is 6.78

The recorded PBM binding z-score for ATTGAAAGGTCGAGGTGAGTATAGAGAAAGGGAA is 4.24

The recorded PBM binding z-score for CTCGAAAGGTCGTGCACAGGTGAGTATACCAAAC is 4.46

The recorded PBM binding z-score for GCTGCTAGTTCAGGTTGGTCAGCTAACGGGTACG is 0.586

Others:
The recorded PBM binding z-score for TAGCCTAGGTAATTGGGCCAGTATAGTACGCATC is -0.133

The recorded PBM binding z-score for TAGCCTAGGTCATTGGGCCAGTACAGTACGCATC is 4.57

The recorded PBM binding z-score for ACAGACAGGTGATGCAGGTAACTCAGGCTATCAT is 0.379

The recorded PBM binding z-score for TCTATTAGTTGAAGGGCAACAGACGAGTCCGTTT is 0.745

The recorded PBM binding z-score for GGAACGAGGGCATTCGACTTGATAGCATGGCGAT is 1.52

###

- Tested on: PPARa:RXRa (NR concentration 270 nM, RXRa partner concentration 90 nM)
- Method notes: PBM binding z-score (relative to random genomic background probes); higher = stronger binding; sequences stand for … in GC…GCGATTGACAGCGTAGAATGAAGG
Observation type: PBM binding z-score
Lab note: record the figure alone, no unit after it.

Worked examples follow.
The recorded PBM binding z-score for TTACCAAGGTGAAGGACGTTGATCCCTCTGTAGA is 1.21

The recorded PBM binding z-score for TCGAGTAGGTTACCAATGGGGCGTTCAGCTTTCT is 1.09

The recorded PBM binding z-score for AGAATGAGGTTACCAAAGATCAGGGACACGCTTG is 3.38

The recorded PBM binding z-score for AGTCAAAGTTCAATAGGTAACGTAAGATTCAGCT is 4.37

The recorded PBM binding z-score for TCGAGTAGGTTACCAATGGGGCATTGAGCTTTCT is 0.992

The recorded PBM binding z-score for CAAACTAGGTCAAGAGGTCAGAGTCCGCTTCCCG is 6.08

Others:
The recorded PBM binding z-score for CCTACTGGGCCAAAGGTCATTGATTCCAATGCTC is 6.33

The recorded PBM binding z-score for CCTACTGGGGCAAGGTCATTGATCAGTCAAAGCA is 4.29

The recorded PBM binding z-score for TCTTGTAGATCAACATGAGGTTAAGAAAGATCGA is 1.62

The recorded PBM binding z-score for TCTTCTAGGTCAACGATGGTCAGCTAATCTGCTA is 4.34

The recorded PBM binding z-score for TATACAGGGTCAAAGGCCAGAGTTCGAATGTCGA is 6.15

The recorded PBM binding z-score for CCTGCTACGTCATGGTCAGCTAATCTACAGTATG is -0.4

The recorded PBM binding z-score for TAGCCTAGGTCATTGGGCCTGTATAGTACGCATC is 3.52

###

- Tested on: RARb homodimer (NR concentration 270 nM)
- Method notes: PBM binding z-score (relative to random genomic background probes); higher = stronger binding; sequences stand for … in GC…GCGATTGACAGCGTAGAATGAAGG
Decide using PBM binding z-score: a value greater than or equal to 2 is Condition met, a smaller one is Condition not met.

API: above_or_equal(metric=PBM binding z-score, cutoff=2) for item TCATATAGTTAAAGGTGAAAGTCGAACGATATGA
Condition not met

API: above_or_equal(metric=PBM binding z-score, cutoff=2) for item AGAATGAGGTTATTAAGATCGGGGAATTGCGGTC
Condition not met

API: above_or_equal(metric=PBM binding z-score, cutoff=2) for item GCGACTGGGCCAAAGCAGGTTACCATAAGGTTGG
Condition not met

API: above_or_equal(metric=PBM binding z-score, cutoff=2) for item TCTCGGAGGACACGAAGGCCAGAGCTTTCCAGAG
Condition not met

API: above_or_equal(metric=PBM binding z-score, cutoff=2) for item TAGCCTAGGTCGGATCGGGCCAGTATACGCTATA
Condition not met

API: above_or_equal(metric=PBM binding z-score, cutoff=2) for item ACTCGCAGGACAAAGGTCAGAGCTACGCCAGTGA
Condition met

API: above_or_equal(metric=PBM binding z-score, cutoff=2) for item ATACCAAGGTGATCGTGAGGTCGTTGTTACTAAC
Condition not met

###

- Test system: PXR:RXRa (NR concentration 270 nM, RXRa partner concentration 90 nM)
- Method notes: PBM binding z-score (relative to random genomic background probes); higher = stronger binding; sequences stand for … in GC…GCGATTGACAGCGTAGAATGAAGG
In this section, each of the sequences is paired with its reported PBM binding z-score.
Lab note: record the figure alone, no unit after it.

Here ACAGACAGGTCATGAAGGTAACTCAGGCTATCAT was tested on PXR:RXRa (NR concentration 270 nM, RXRa partner concentration 90 nM), and its PBM binding z-score came to 2.95

Here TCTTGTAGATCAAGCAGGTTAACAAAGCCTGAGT was tested on PXR:RXRa (NR concentration 270 nM, RXRa partner concentration 90 nM), and its PBM binding z-score came to 0.699

Here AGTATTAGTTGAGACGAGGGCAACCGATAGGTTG was tested on PXR:RXRa (NR concentration 270 nM, RXRa partner concentration 90 nM), and its PBM binding z-score came to 1.63

Here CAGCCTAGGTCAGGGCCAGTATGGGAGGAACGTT was tested on PXR:RXRa (NR concentration 270 nM, RXRa partner concentration 90 nM), and its PBM binding z-score came to 0.196

Others:
Here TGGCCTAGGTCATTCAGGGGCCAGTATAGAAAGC was tested on PXR:RXRa (NR concentration 270 nM, RXRa partner concentration 90 nM), and its PBM binding z-score came to 2.48

Here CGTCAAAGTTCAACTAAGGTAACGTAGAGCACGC was tested on PXR:RXRa (NR concentration 270 nM, RXRa partner concentration 90 nM), and its PBM binding z-score came to 5.54

Here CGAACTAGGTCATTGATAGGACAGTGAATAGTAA was tested on PXR:RXRa (NR concentration 270 nM, RXRa partner concentration 90 nM), and its PBM binding z-score came to 1.43

Here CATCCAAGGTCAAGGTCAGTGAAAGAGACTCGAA was tested on PXR:RXRa (NR concentration 270 nM, RXRa partner concentration 90 nM), and its PBM binding z-score came to 4.84

Here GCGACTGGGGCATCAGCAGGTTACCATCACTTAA was tested on PXR:RXRa (NR concentration 270 nM, RXRa partner concentration 90 nM), and its PBM binding z-score came to -0.239

Here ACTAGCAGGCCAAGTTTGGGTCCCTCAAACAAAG was tested on PXR:RXRa (NR concentration 270 nM, RXRa partner concentration 90 nM), and its PBM binding z-score came to -0.465

Here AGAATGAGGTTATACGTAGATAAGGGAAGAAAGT was tested on PXR:RXRa (NR concentration 270 nM, RXRa partner concentration 90 nM), and its PBM binding z-score came to 1.17

Here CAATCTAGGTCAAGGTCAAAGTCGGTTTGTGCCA was tested on PXR:RXRa (NR concentration 270 nM, RXRa partner concentration 90 nM), and its PBM binding z-score came to 5.3

Here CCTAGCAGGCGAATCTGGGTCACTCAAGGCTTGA was tested on PXR:RXRa (NR concentration 270 nM, RXRa partner concentration 90 nM), and its PBM binding z-score came to 0.221

Here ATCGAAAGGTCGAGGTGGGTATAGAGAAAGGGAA was tested on PXR:RXRa (NR concentration 270 nM, RXRa partner concentration 90 nM), and its PBM binding z-score came to 2.99
